tested on: 947758-054-R-J2-PDC spheroid growth, percent test/control; assay: Anticancer human tumor 947758-054-R-J2-PDC patient-derived colon adenocarcinoma cell line growth inhibition [CLK]; conditions: second compound 1 µM; first compound 10 µM; hits give low values; spheroids with HUVEC and MSC
property: viability, T/C (%)
Please give a number only; it is taken to be in %.

Some solved cases for reference:
C=CC(=O)N1CCN(c2nc(=O)n(-c3c(C)ccnc3C(C)C)c3nc(-c4c(O)cccc4F)c(F)cc23)C(C)C1 (centres undefined) + CN1CCN(c2cc(C(=O)Nc3cc4cc(-c5cnn(C)c5)ccc4cn3)ccn2)CC1; 0.21
CC1(C)CCC(CN2CCN(c3ccc(C(=O)NS(=O)(=O)c4ccc(NCC5CCOCC5)c([N+](=O)[O-])c4)c(Oc4cnc5[nH]ccc5c4)c3)CC2)=C(c2ccc(Cl)cc2)C1 + CNC(=O)c1ccc(Nc2nc(OC3CCCC3)c3c(-c4ccc5nc(C)oc5c4)c[nH]c3n2)c(OC)c1; 0.6
O=c1[nH]cc(F)c(=O)[nH]1 + CN1CCN(c2cc(C(=O)Nc3cc4cc(-c5cnn(C)c5)ccc4cn3)ccn2)CC1; 0.12
O=C(c1cc(Cc2n[nH]c(=O)c3ccccc23)ccc1F)N1CCN(C(=O)C2CC2)CC1 + CNC(=O)c1ccc(Nc2nc(OC3CCCC3)c3c(-c4ccc5nc(C)oc5c4)c[nH]c3n2)c(OC)c1; 35.8

Item: COC1C=CCC(C)C(C)S(=O)(=O)NC(=O)c2ccc3c(c2)N(CC2CCC21)CC1(CCCc2cc(Cl)ccc21)CO3 (centres undefined) + CN1CCN(c2cc(C(=O)Nc3cc4cc(-c5cnn(C)c5)ccc4cn3)ccn2)CC1 | viability, T/C: 0.3

Item: C=C(F)C(=O)N1CCN(c2nc(OCC3CCCN3C)nc3c2CCN(c2cccc4cccc(Cl)c24)C3)CC1CC#N (centres undefined) + CNC(=O)c1ccc(Nc2nc(OC3CCCC3)c3c(-c4ccc5nc(C)oc5c4)c[nH]c3n2)c(OC)c1 | viability, T/C: 0.18

Item: CC(Nc1ccc2c(c1)OCCn1cc(N3C(=O)OCC3C(F)F)nc1-2)C(N)=O (centres undefined) + CN1CCN(c2cc(C(=O)Nc3cc4cc(-c5cnn(C)c5)ccc4cn3)ccn2)CC1 | viability, T/C: 0.2

Item: CCCS(=O)(=O)Nc1ccc(F)c(C(=O)c2c[nH]c3ncc(-c4ccc(Cl)cc4)cc23)c1F + CNC(=O)c1ccc(Nc2nc(OC3CCCC3)c3c(-c4ccc5nc(C)oc5c4)c[nH]c3n2)c(OC)c1 | viability, T/C: 4.09

Item: C=CC(=O)N1CCN(c2nc(=O)n(-c3c(C)ccnc3C(C)C)c3nc(-c4c(O)cccc4F)c(F)cc23)C(C)C1 (centres undefined) + CNC(=O)c1ccc(Nc2nc(OC3CCCC3)c3c(-c4ccc5nc(C)oc5c4)c[nH]c3n2)c(OC)c1 | viability, T/C: 20

###

test system: 947758-054-R-J2-PDC spheroid growth, percent test/control; test: Anticancer human tumor 947758-054-R-J2-PDC cell line growth inhibition [CLK]; details: second compound 0.316 µM; first compound 0.003 µM; hits give low values; spheroids with HUVEC and MSC;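 note: spheroids exposed to compounds for one week before readout; 100% = DMSO vehicle control wells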
property: viability, T/C

Some solved cases for reference:
C=CC(=O)Nc1cc(Nc2nccc(-c3cn(C)c4ccccc34)n2)c(OC)cc1N(C)CCN(C)C + CNC(=O)c1ccc(Nc2nc(OC3CCCC3)c3c(-c4ccc5nc(C)oc5c4)c[nH]c3n2)c(OC)c1; 81.8%
CC(C)CC(NC(=O)C(Cc1ccccc1)NC(=O)c1cnccn1)B(O)O (centres undefined) + CNC(=O)c1ccc(Nc2nc(OC3CCCC3)c3c(-c4ccc5nc(C)oc5c4)c[nH]c3n2)c(OC)c1; 1.44%
CC(C)CC(NC(=O)C(Cc1ccccc1)NC(=O)c1cnccn1)B(O)O (centres undefined) + CN1CCN(c2cc(C(=O)Nc3cc4cc(-c5cnn(C)c5)ccc4cn3)ccn2)CC1; 0.21%

Turning to the following compound.
Item: C=CC(=O)Nc1cc(Nc2nccc(-c3cn(C)c4ccccc34)n2)c(OC)cc1N(C)CCN(C)C + CN1CCN(c2cc(C(=O)Nc3cc4cc(-c5cnn(C)c5)ccc4cn3)ccn2)CC1 | viability, T/C: 4.6%

###

Tested on: 947758-054-R-J2-PDC spheroid growth, percent test/control
Experiment: Anticancer human tumor 947758-054-R-J2-PDC cell line growth inhibition [CLK];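 note: spheroids exposed to compounds for one week before readout; 100% = DMSO vehicle control wells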
Conditions: second compound 0.0316 µM; first compound 0.316 µM; hits give low values; spheroids with HUVEC and MSC
From the text: A high-throughput screen of multi-cell type tumor spheroids was designed to identify active combinations of […] and targeted small molecules. Complex spheroids include a stromal component modeled by human endothelial cells (HUVEC) and fibroblasts modeled by human mesenchymal stem cells (MSCs). […] Compounds. […] If the clinical Cmax for an agent had not been determined, the highest concentration tested was 10 microM. […]
property: viability, T/C

CC(=O)O[C@H]1C(=O)[C@@]2(C)[C@H]([C@H](OC(=O)c3ccccc3)[C@]3(O)C[C@H](OC(=O)[C@H](O)[C@@H](NC(=O)c4ccccc4)c4ccccc4)C(C)=C1C3(C)C)[C@]1(OC(C)=O)CO[C@@H]1C[C@@H]2O + CN1CCN(c2cc(C(=O)Nc3cc4cc(-c5cnn(C)c5)ccc4cn3)ccn2)CC1; 4.94%
CCCS(=O)(=O)Nc1ccc(F)c(C(=O)c2c[nH]c3ncc(-c4ccc(Cl)cc4)cc23)c1F + CN1CCN(c2cc(C(=O)Nc3cc4cc(-c5cnn(C)c5)ccc4cn3)ccn2)CC1; 79.7%
CC1(C)CCC(CN2CCN(c3ccc(C(=O)NS(=O)(=O)c4ccc(NCC5CCOCC5)c([N+](=O)[O-])c4)c(Oc4cnc5[nH]ccc5c4)c3)CC2)=C(c2ccc(Cl)cc2)C1 + CNC(=O)c1ccc(Nc2nc(OC3CCCC3)c3c(-c4ccc5nc(C)oc5c4)c[nH]c3n2)c(OC)c1; 93.6%
CC(CO)NC(=O)c1cc(-c2ccc(Cl)cc2)nn(-c2cnn(C)c2)c1=O (centres undefined) + CN1CCN(c2cc(C(=O)Nc3cc4cc(-c5cnn(C)c5)ccc4cn3)ccn2)CC1; 105%
C=C(F)C(=O)N1CCN(c2nc(OCC3CCCN3C)nc3c2CCN(c2cccc4cccc(Cl)c24)C3)CC1CC#N (centres undefined) + CNC(=O)c1ccc(Nc2nc(OC3CCCC3)c3c(-c4ccc5nc(C)oc5c4)c[nH]c3n2)c(OC)c1; 83.4%

Item: CC1COCCN1c1cc(C2(S(C)(=N)=O)CC2)nc(-c2ccnc3[nH]ccc23)n1 (centres undefined) + CN1CCN(c2cc(C(=O)Nc3cc4cc(-c5cnn(C)c5)ccc4cn3)ccn2)CC1 | viability, T/C: 147%

Item: CC(=O)O[C@H]1C(=O)[C@@]2(C)[C@H]([C@H](OC(=O)c3ccccc3)[C@]3(O)C[C@H](OC(=O)[C@H](O)[C@@H](NC(=O)c4ccccc4)c4ccccc4)C(C)=C1C3(C)C)[C@]1(OC(C)=O)CO[C@@H]1C[C@@H]2O + CNC(=O)c1ccc(Nc2nc(OC3CCCC3)c3c(-c4ccc5nc(C)oc5c4)c[nH]c3n2)c(OC)c1 | viability, T/C: 31.7%

Item: CCc1c2c(nc3ccc(O)cc13)-c1cc3c(c(=O)n1C2)COC(=O)[C@]3(O)CC + CNC(=O)c1ccc(Nc2nc(OC3CCCC3)c3c(-c4ccc5nc(C)oc5c4)c[nH]c3n2)c(OC)c1 | viability, T/C: 8.37%

Item: CC(Nc1ccc2c(c1)OCCn1cc(N3C(=O)OCC3C(F)F)nc1-2)C(N)=O (centres undefined) + CNC(=O)c1ccc(Nc2nc(OC3CCCC3)c3c(-c4ccc5nc(C)oc5c4)c[nH]c3n2)c(OC)c1 | viability, T/C: 39.4%

###

test system: 947758-054-R-J2-PDC spheroid growth, percent test/control; test: Anticancer human tumor 947758-054-R-J2-PDC cell line growth inhibition [CLK]; details: second compound 0.0316 µM; first compound 0.316 µM; spheroids with HUVEC and MSC; active means viability on the fitted dose curve at most 10% of control; inactive means the rest;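 note: spheroids exposed to compounds for one week before readout; 100% = DMSO vehicle control wells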
In this exercise, the only acceptable responses are TRUE (active), FALSE (inactive)

Nc1ccn(C2OC(CO)C(O)C2(F)F)c(=O)n1 (stereo not given) + CN1CCN(c2cc(C(=O)Nc3cc4cc(-c5cnn(C)c5)ccc4cn3)ccn2)CC1; FALSE

Per the records of this test, what outcome belongs to Nc1ccccc1NC(=O)c1ccc(CNC(=O)OCc2cccnc2)cc1 + CNC(=O)c1ccc(Nc2nc(OC3CCCC3)c3c(-c4ccc5nc(C)oc5c4)c[nH]c3n2)c(OC)c1 ?
FALSE

Per the records of this test, what outcome belongs to C=CC(=O)N1CCN(c2nc(=O)n(-c3c(C)ccnc3C(C)C)c3nc(-c4c(O)cccc4F)c(F)cc23)C(C)C1 (stereo not given) + CNC(=O)c1ccc(Nc2nc(OC3CCCC3)c3c(-c4ccc5nc(C)oc5c4)c[nH]c3n2)c(OC)c1 ?
FALSE

Data credit: PubChem BioAssay AID2060605
